Listed next: entries and their corresponding Tmax.
Experiment: Plasma pharmacokinetics of ginsenosides in rats after 1-week repeated RGE
Conditions: rat, plasma, po, 1.5 g/kg/day
property.label: Tmax

1. CC(C)=CCC[C@](C)(O[C@@H]1O[C@H](CO)[C@@H](O)[C@H](O)[C@H]1O)[C@H]1CC[C@]2(C)[C@@H]1[C@H](O)C[C@@H]1[C@@]3(C)CC[C@H](O[C@@H]4O[C@H](CO)[C@@H](O)[C@H](O)[C@H]4O[C@@H]4O[C@H](CO)[C@@H](O)[C@H](O)[C@H]4O)C(C)(C)[C@@H]3CC[C@]12C [Rd, ginsenoside Rd] | 2.17 h
2. CC(C)=CCC[C@](C)(O[C@@H]1O[C@H](CO[C@@H]2O[C@H](CO)[C@@H](O)[C@H](O)[C@H]2O)[C@@H](O)[C@H](O)[C@H]1O)[C@H]1CC[C@]2(C)[C@@H]1[C@H](O)C[C@@H]1[C@@]3(C)CC[C@H](O[C@@H]4O[C@H](CO)[C@@H](O)[C@H](O)[C@H]4O[C@@H]4O[C@H](CO)[C@@H](O)[C@H](O)[C@H]4O)C(C)(C)[C@@H]3CC[C@]12C [Rb1, ginsenoside Rb1] | 3.33 h
3. CC(C)=CCC[C@](C)(O[C@@H]1O[C@H](CO[C@@H]2O[C@@H](CO)[C@H](O)[C@H]2O)[C@@H](O)[C@H](O)[C@H]1O)[C@H]1CC[C@]2(C)[C@@H]1[C@H](O)C[C@@H]1[C@@]3(C)CC[C@H](O[C@@H]4O[C@H](CO)[C@@H](O)[C@H](O)[C@H]4O[C@@H]4O[C@H](CO)[C@@H](O)[C@H](O)[C@H]4O)C(C)(C)[C@@H]3CC[C@]12C [Rc, ginsenoside Rc] | 3.33 h
4. CC(C)=CCC[C@](C)(O[C@@H]1O[C@H](CO[C@@H]2OC[C@H](O)[C@H](O)[C@H]2O)[C@@H](O)[C@H](O)[C@H]1O)[C@H]1CC[C@]2(C)[C@@H]1[C@H](O)C[C@@H]1[C@@]3(C)CC[C@H](O[C@@H]4O[C@H](CO)[C@@H](O)[C@H](O)[C@H]4O[C@@H]4O[C@H](CO)[C@@H](O)[C@H](O)[C@H]4O)C(C)(C)[C@@H]3CC[C@]12C [Rb2, ginsenoside Rb2] | 3.33 h

---

Experiment: Pharmacokinetics of iv valsartan in rats with or without repeated iv Rc
Assay type: in vivo
Settings: rat, plasma, 1 mg/kg, valsartan 1 mg/kg iv, after Rc 3 mg/kg/day iv for 5 days
Method: The rats were randomly divided into the control and Rc groups. The Rc group was injected with Rc solution (3 mg/mL/kg, dissolved in saline) intravenously via the tail vein for 5 consecutive days. The control group received saline (1 mL/kg) for 5 consecutive days via the tail vein. […] Quantification was performed in the selected reaction-monitoring mode at m/z 436.1 → 291.0 for valsartan and m/z 336.1 → 320.0 for berberine. […] The intraday and interday precision ranged from 1.80% to 9.23%.
property.label: MRT

1) CCCCC(=O)N(Cc1ccc(-c2ccccc2-c2nnn[nH]2)cc1)[C@H](C(=O)O)C(C)C | 2.94 h

---

Biological target: OATP1B1 (Homo sapiens, UniProt Q9Y6L6)
Sequence (Q9Y6L6 whole entry): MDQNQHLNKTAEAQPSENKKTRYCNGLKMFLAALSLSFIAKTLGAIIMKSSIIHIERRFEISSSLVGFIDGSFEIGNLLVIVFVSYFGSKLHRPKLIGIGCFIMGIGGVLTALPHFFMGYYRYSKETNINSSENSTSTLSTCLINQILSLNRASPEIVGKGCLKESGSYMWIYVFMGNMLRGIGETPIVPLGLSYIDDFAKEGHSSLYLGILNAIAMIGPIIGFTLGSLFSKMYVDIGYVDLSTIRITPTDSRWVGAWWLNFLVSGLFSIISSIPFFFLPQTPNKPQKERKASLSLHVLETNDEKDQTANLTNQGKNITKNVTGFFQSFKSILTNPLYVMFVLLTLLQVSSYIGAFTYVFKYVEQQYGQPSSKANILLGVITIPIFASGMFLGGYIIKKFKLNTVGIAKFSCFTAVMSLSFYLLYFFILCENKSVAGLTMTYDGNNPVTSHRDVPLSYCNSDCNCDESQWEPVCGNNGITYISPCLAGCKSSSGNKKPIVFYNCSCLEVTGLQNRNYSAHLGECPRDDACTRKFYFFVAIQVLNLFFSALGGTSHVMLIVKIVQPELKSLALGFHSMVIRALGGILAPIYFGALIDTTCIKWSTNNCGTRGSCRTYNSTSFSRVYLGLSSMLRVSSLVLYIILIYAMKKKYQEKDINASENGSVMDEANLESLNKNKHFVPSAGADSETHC
Test: Inhibition of OATP1B1-mediated [3H]estrone-3-sulfate uptake in HEK293-OATP1B1 cells
Conditions: read-out: IC50 OATP1B1; HEK293-OATP1B1, 0.1 μM [3H]ES uptake, 5 min
Listed next: entries and their corresponding IC50.
property.label: IC50 (µM)

1) CC(C)=CCC[C@](C)(O[C@@H]1O[C@H](CO)[C@@H](O)[C@H](O)[C@H]1O)[C@H]1CC[C@]2(C)[C@@H]1[C@H](O)C[C@@H]1[C@@]3(C)CC[C@H](O)C(C)(C)[C@@H]3CC[C@]12C [Compound K, compound K] | 22.5
2) CC(C)=CCC[C@](C)(O)[C@H]1CC[C@]2(C)[C@@H]1[C@H](O)C[C@@H]1[C@@]3(C)CC[C@H](O[C@@H]4O[C@H](CO)[C@@H](O)[C@H](O)[C@H]4O[C@@H]4O[C@H](CO)[C@@H](O)[C@H](O)[C@H]4O)C(C)(C)[C@@H]3CC[C@]12C [Rg3, ginsenoside Rg3] | 7.99

---

Listed next: entries and their corresponding IC50.
Biological target: OAT1 (Homo sapiens, UniProt Q4U2R8)
Sequence (Q4U2R8 whole entry): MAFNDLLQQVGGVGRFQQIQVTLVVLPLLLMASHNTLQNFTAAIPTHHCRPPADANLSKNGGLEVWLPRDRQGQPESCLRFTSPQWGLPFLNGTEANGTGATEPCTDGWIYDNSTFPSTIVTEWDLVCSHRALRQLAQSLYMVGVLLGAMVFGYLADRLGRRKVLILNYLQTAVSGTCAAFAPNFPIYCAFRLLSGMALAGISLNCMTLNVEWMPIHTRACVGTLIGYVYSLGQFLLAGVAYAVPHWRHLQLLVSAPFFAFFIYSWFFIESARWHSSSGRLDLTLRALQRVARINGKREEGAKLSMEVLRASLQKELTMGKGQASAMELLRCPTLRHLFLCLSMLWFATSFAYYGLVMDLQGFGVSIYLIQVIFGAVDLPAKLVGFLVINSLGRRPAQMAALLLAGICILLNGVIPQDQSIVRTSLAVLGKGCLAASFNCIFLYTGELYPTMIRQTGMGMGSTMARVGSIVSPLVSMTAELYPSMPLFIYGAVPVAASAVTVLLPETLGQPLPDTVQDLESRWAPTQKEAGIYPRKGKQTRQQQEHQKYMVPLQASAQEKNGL
Test: Inhibition of OAT1-mediated [3H]PAH uptake in HEK293-OAT1 cells
property.label: IC50

1) CC(C)=CCC[C@](C)(O[C@@H]1O[C@H](CO)[C@@H](O)[C@H](O)[C@H]1O)[C@H]1CC[C@]2(C)[C@@H]1[C@H](O)C[C@@H]1[C@@]3(C)CC[C@H](O)C(C)(C)[C@@H]3[C@@H](O[C@@H]3O[C@H](CO)[C@@H](O)[C@H](O)[C@H]3O)C[C@]12C [Rg1, ginsenoside Rg1] | > 100 µM
2) CC(C)=CCC[C@](C)(O[C@@H]1O[C@H](CO)[C@@H](O)[C@H](O)[C@H]1O)[C@H]1CC[C@]2(C)[C@@H]1[C@H](O)C[C@@H]1[C@@]3(C)CC[C@H](O[C@@H]4O[C@H](CO)[C@@H](O)[C@H](O)[C@H]4O[C@@H]4O[C@H](CO)[C@@H](O)[C@H](O)[C@H]4O)C(C)(C)[C@@H]3CC[C@]12C [Rd, ginsenoside Rd] | > 100 µM

---

Target: OATP1B3 (Homo sapiens, UniProt Q9NPD5)
Sequence (Q9NPD5 whole entry): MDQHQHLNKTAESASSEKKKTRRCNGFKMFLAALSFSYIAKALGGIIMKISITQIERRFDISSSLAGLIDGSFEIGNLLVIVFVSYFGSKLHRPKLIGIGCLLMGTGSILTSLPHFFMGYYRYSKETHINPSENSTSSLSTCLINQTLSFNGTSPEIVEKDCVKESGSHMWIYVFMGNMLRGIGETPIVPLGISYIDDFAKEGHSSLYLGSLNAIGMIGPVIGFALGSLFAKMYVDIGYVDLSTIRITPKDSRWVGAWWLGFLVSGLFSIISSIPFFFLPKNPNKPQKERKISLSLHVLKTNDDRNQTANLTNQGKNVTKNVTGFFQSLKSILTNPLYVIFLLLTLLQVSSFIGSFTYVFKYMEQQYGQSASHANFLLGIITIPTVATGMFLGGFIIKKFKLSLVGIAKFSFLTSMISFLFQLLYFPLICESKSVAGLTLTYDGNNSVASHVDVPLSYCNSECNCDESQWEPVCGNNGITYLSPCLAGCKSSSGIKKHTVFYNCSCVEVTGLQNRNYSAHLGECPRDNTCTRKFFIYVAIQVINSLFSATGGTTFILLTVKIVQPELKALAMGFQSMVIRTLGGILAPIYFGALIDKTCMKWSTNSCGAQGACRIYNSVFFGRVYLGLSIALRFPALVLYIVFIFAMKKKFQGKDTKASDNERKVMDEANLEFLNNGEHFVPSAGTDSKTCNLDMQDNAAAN
Assay: Inhibition of OATP1B3-mediated [3H]estradiol-17β-D-glucuronide uptake in HEK293-OATP1B3 cells
pIC50: −log10 of the molar value.
Listed next: entries and their corresponding pIC50.
property.label: pIC50

1) CC(C)=CCC[C@](C)(O[C@@H]1O[C@H](CO[C@@H]2O[C@H](CO)[C@@H](O)[C@H](O)[C@H]2O)[C@@H](O)[C@H](O)[C@H]1O)[C@H]1CC[C@]2(C)[C@@H]1[C@H](O)C[C@@H]1[C@@]3(C)CC[C@H](O[C@@H]4O[C@H](CO)[C@@H](O)[C@H](O)[C@H]4O[C@@H]4O[C@H](CO)[C@@H](O)[C@H](O)[C@H]4O)C(C)(C)[C@@H]3CC[C@]12C [Rb1, ginsenoside Rb1] | 5.64
2) CC(C)=CCC[C@](C)(O[C@@H]1O[C@H](CO[C@@H]2OC[C@H](O)[C@H](O)[C@H]2O)[C@@H](O)[C@H](O)[C@H]1O)[C@H]1CC[C@]2(C)[C@@H]1[C@H](O)C[C@@H]1[C@@]3(C)CC[C@H](O[C@@H]4O[C@H](CO)[C@@H](O)[C@H](O)[C@H]4O[C@@H]4O[C@H](CO)[C@@H](O)[C@H](O)[C@H]4O)C(C)(C)[C@@H]3CC[C@]12C [Rb2, ginsenoside Rb2] | 5.75
3) CC(C)=CCC[C@](C)(O)[C@H]1CC[C@]2(C)[C@@H]1[C@H](O)C[C@@H]1[C@@]3(C)CC[C@H](O[C@@H]4O[C@H](CO)[C@@H](O)[C@H](O)[C@H]4O)C(C)(C)[C@@H]3CC[C@]12C [Rh2, ginsenoside Rh2] | 4.51
4) CC(C)=CCC[C@](C)(O[C@@H]1O[C@H](CO)[C@@H](O)[C@H](O)[C@H]1O)[C@H]1CC[C@]2(C)[C@@H]1[C@H](O)C[C@@H]1[C@@]3(C)CC[C@H](O[C@@H]4O[C@H](CO)[C@@H](O)[C@H](O)[C@H]4O[C@@H]4O[C@H](CO)[C@@H](O)[C@H](O)[C@H]4O)C(C)(C)[C@@H]3CC[C@]12C [Rd, ginsenoside Rd] | 4.59
5) CO[C@H]1/C=C/O[C@@]2(C)Oc3c(C)c(O)c4c(O)c(c(/C=N/N5CCN(C)CC5)c(O)c4c3C2=O)NC(=O)/C(C)=C\C=C\[C@H](C)[C@H](O)[C@@H](C)[C@@H](O)[C@@H](C)[C@H](OC(C)=O)[C@@H]1C [Rifampin, rifampin, reference compound] | 6.09

---

Assay: Pharmacokinetics of iv valsartan in rats with or without repeated iv Rc
Format: in vivo
Settings: rat, plasma, 1 mg/kg, valsartan 1 mg/kg iv, after Rc 3 mg/kg/day iv for 5 days
property.label: C0

1. CCCCC(=O)N(Cc1ccc(-c2ccccc2-c2nnn[nH]2)cc1)[C@H](C(=O)O)C(C)C [Valsartan, valsartan] | 1450 ng/mL

---

Assay: Pharmacokinetics of iv valsartan in rats with or without repeated iv Rc
Type: in vivo
Conditions: rat, plasma, 1 mg/kg, valsartan 1 mg/kg iv, after Rc 3 mg/kg/day iv for 5 days, read-out: AUC24h
property.label: AUC(0-t)

1. CCCCC(=O)N(Cc1ccc(-c2ccccc2-c2nnn[nH]2)cc1)[C@H](C(=O)O)C(C)C | 809 ng·h/mL
